Catalogue of composite z-score readings, one per entry.
# System: Lefty1
# protocol description: Lefty1 binders on small-molecule microarrays, primary screen, biochemical, small-molecule microarray, 635/667 nm fluorescence (AID 1139)
# cond: small-molecule microarray binding, fluorescence 635/667; higher = more signal
Keep the answer to the number alone.

Below are worked cases with known answers.
O=C1[C@H]2C=C(Br)[C@H](C[C@@H]2OCCCCO)[C@@]12CO2 : 0.17
C=CC[C@]1(C(=O)N2CCCCC2)N=C(c2ccc(OCCCO)cc2)O[C@H]1c1ccccc1 : -0.395
COc1cc2c(cc1OC)CN(C(=O)[C@H]1[C@@H]3C(=O)O[C@@H](c4ccccc4)[C@@H](c4ccccc4)N3[C@@H](c3ccc(O)cc3)[C@]13C(=O)Nc1ccc(C#CC4=CCCCC4)cc13)CC2 : 1.2
O=C1NC(=O)C2C1C=CC(C(O)C(c1ccccc1)c1ccccc1)N2Nc1ccc(Cl)cc1Cl (stereo not given) : -0.0329
C=C(C)C1C(=C)CN([C@H](CO)c2ccccc2)C1=O (stereo not given in full) : 0.587
C=CC[C@@]1(C(=O)NCc2ccccc2)N=C(c2ccc(OCCCO)cc2)O[C@@H]1c1ccccc1N=[N+]=[N-] : 0.11
COc1ccc([Si](C)(C)[C@@H]2[C@@H](CC(=O)N3Cc4ccccc4C[C@H]3CO)O[C@]3(C(=O)N(C)c4c(Br)cc(C)cc43)[C@H]2C)cc1 : 1.56
O=C1NC(=O)C2C1C=CC(C(O)c1ccccc1)N2Nc1ccc(Cl)cc1Cl (stereo not given) : 1.4
COc1ccc(CCNC(=O)[C@@H]2c3ccccc3C(=O)N(C3Cc4ccccc4C3)[C@H]2c2ccc(CO)cc2)cc1 : -0.0376
[N-]=[N+]=Nc1ccccc1C[C@@]1(C(=O)NCCN2CCOCC2)N=C(c2ccc(OCCCO)cc2)O[C@@H]1c1ccccc1 : 0.7

Exam item: Please give the measured composite z-score for this compound: `COC(=O)[C@@]1(Cc2ccc(F)cc2)[C@H]2c3cc(C(=O)N4CCCC4)n(Cc4ccc(C)o4)c3C[C@H]2CN1C(=O)c1ccccc1`
Marked response: 0.181

Exam item: Also `COCCOC(=O)N1C(=O)[C@@]2(c3cc(C#CC4(O)CCCCCC4)ccc31)[C@H](c1ccc(O)cc1)N1[C@H](c3ccccc3)[C@H](c3ccccc3)OC(=O)[C@H]1[C@@H]2C(=O)Nc1nc2ccccc2s1` , if possible.
Marked response: 0.562

Exam item: Also `NCCCCCNC(=O)[C@@H]1C[C@@H]2C(=O)NCC(=O)N2[C@@H]1c1ccc(O)cc1` , if possible.
Marked response: 1.76

----------
# protocol description: splicing luciferase reporter signal modulators, primary screen, spliceosome inhibition project, cell-based, HEK293, splice +/- reporter (AID 1101);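 also: HEK293 cells carrying a splicing-competent luciferase reporter gene; test concentration not given here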
# cond: luminescence, 24 h, higher = more signal, called active from +8 up or from −8 down
Catalogue of z-score readings, one per entry.
Keep the answer to the number alone.

Exam item: Please give the measured z-score for this compound: `CC(C)N1C(=O)[C@@]2(Cc3ccccc31)c1ccccc1C(=O)N(C1CCCCC1)[C@H]2c1ccc(CO)cc1`
Marked response: 0.0789

Exam item: Also `CC[C@@H]1C=C(C(=O)O)[C@H](c2ccco2)N1S(=O)(=O)c1ccc(C)cc1` , if possible.
Marked response: 0.447

Exam item: Also `COCCOC(=O)N1C(=O)[C@@]2(c3cc(C#CCNC(N)=O)ccc31)[C@H](C(=O)NC[C@H](O)c1ccccc1)[C@H]1C(=O)O[C@H](c3ccccc3)[C@H](c3ccccc3)N1[C@@H]2c1ccccc1OCCO` , if possible.
Marked response: -0.0247

Data provenance is PubChem BioAssay.
